Measured values drawn from ChEMBL document CHEMBL2146456 for this set.

Reported EC50 is given for each of the following molecules.
protocol-text: Allosteric modulation of gamma-aminobutyric acid receptor A alpha5beta2gamma2S expressed in Xenopus oocytes assessed as potentiation of GABA-mediated chloride current by voltage clamp analysis relative to control
Assay type: cell-based
stated-conditions: Oocyte
Write down the numeric answer in µM and omit the unit.

C=C[C@]1(C)C=C2CC[C@@H]3[C@](C)(CCC[C@@]3(C)C(=O)O)[C@H]2CC1
40.7

Next molecule, EC50 to be filled in.
Write down EC50 measured for item `C=C[C@@]1(C)CC[C@H]2C(=CC[C@@H]3[C@]2(C)CCC[C@@]3(C)C(=O)O)C1`
317

* * *

Tested on: Oocyte
protocol-text: Allosteric modulation of gamma-aminobutyric acid receptor A alpha1beta2gamma2S expressed in Xenopus oocytes assessed as potentiation of GABA-mediated chloride current at 0.1 to 500 uM by voltage clamp analysis relative to control
Format: cell-based
Reported Imax is given for each of the following compounds.
Write down the numeric answer in % and omit the unit.

Before answering, review these 3 worked examples.
Cc1ncc2n1-c1ccc(Cl)cc1C(c1ccccc1F)=NC2 [MIDAZOLAM]
342
Cc1nnc2n1-c1ccc(Cl)cc1C(c1ccccc1Cl)=NC2 [TRIAZOLAM]
253
CCc1cc2c(s1)N(C)C(=O)CN=C2c1ccccc1Cl [CLOTIAZEPAM]
260

Write down Imax measured for item C=C[C@]1(C)C=C2CC[C@@H]3[C@](C)(CCC[C@@]3(C)C(=O)O)[C@H]2CC1 [SANDARACOPIMARIC ACID]
856

* * *

protocol-text: Allosteric modulation of gamma-aminobutyric acid receptor A alpha1beta2gamma2S expressed in Xenopus oocytes assessed as potentiation of GABA-mediated chloride current by voltage clamp analysis
Type: cell-based
stated-conditions: Oocyte
Reported log10 EC50 is given for each of the following compounds.
Transform log10 | Measure EC50 | Unit nM

Before answering, review these 3 worked examples.
CCc1cc2c(s1)N(C)C(=O)CN=C2c1ccccc1Cl
2.26
C=C[C@@]1(C)CC[C@H]2C(=CC[C@@H]3[C@]2(C)CCC[C@@]3(C)C(=O)O)C1
5.15
C=C[C@]1(C)C=C2CC[C@@H]3[C@](C)(CCC[C@@]3(C)C(=O)O)[C@H]2CC1
4.52

Write down log10 EC50 measured for item `Cc1ncc2n1-c1ccc(Cl)cc1C(c1ccccc1F)=NC2`
2.16

Write down log10 EC50 measured for item `Cc1nnc2n1-c1ccc(Cl)cc1C(c1ccccc1Cl)=NC2`
1.34

* * *

Tested on: Oocyte
protocol-text: Allosteric modulation of gamma-aminobutyric acid receptor A alpha1beta2gamma2S expressed in Xenopus oocytes assessed as potentiation of GABA-mediated chloride current at 100 uM by voltage clamp analysis relative to control
Type: cell-based
endpoint-name: Imax

Before answering, review these 3 worked examples.
CC(C)c1c(O)ccc2c1CC[C@H]1C(C)(C)CCC[C@]21C
-15.1%
C=C1CC[C@@H]2[C@](C)(CCC[C@]2(C)C(=O)OC)[C@H]1CCC1=CCOC1=O
-13.1%
C=C[C@]1(C)C=C2CC[C@H]3[C@](C)(CO)[C@@H](O)CC[C@]3(C)[C@H]2CC1
7.7%

Next compound, Imax to be filled in.
Report the value of Imax obtained on Oocyte for `C=C[C@]1(C)C=C2CC[C@H]3[C@](C)(C=O)[C@@H](O)CC[C@]3(C)[C@H]2CC1` .
3%

* * *

Reported Imax is given for each of the following molecules.
Test system: Oocyte
protocol-text: Allosteric modulation of gamma-aminobutyric acid receptor A alpha1beta2gamma2S expressed in Xenopus oocytes assessed as potentiation of GABA-mediated chloride current at 10 uM by voltage clamp analysis relative to control
Format: cell-based
Write down the numeric answer in % and omit the unit.

Before answering, review these 3 worked examples.
C=C[C@]1(C)C=C2CC[C@H]3[C@](C)(C=O)[C@@H](O)CC[C@]3(C)[C@H]2CC1
3.8
C=C1CC[C@@H]2[C@](C)(CCC[C@]2(C)C(=O)OC)[C@H]1CCC1=CCOC1=O
-13.4
C=C[C@]1(C)C=C2CC[C@H]3[C@](C)(CO)[C@@H](O)CC[C@]3(C)[C@H]2CC1
13.8

Next molecule, Imax to be filled in.
Write down Imax measured for item `CC(C)c1c(O)ccc2c1CC[C@H]1C(C)(C)CCC[C@]21C`
-10.6
